Values were extracted from patent US20190218553.

measured_target: von Willebrand factor (VWF) (Homo sapiens, UniProt P04275 P04275:764-2813)
experiment_notes: filter; Bmax 57%; 2 mM CaCl2, 37 C
applied_conditions: tags: factor VIII free, Haematologic Technologies Inc; label: 5'-32P
pKd values, listed per item
Value format note: pKd is -log10 of concentration (mol/L); just state the number.

Example results:
binder | pKd
ACGAACUGCCCUCAGCUACUUUCAUGUUGCUGACGCACAGACGU (ssRNA, rAfCrGrArAfCfUrGfCfCfCfUfCmAmGfCfUmAfCfUfUfUfCrAfUrGfUfUmGfCfUmGrAfCrGfCrAfCrArGrAfCrGfU-idT) [T25 vrt9] | 8.01
ACGAACUGCCCUCGAUCGACGCACAGACGU (ssRNA, mAmCmGmAmAmCfUrGfCfCfCmUmCmGmAmUmCmGmAfCmGfCmAmCmAmGmAmCmGfU-idT) [T59 vrt16] | 6.88

Proceed to the following item.
Query (binder): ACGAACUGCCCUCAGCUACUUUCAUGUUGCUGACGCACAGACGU (ssRNA, rAfCrGrArAfCfUrGfCfCfCfUfCrArGfCfUrAfCfUfUfUfCmAfUmGfUfUrGfCfUrGrAfCrGfCrAfCrArGrAfCrGfU-idT) [T25 vrt11] ; field requested: pKd
8.14
